# procedure.text: amyloid nucleation score (Sup35N fusion, yeast selection) (log enrichment); library NNK1; higher = more nucleation; inactive = no reads after selection;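 note: zero at mode of non-aggregating sequences after 7 days selection at 30°C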
property: amyloid nucleation score
Reply with just the number.

In [3]: df
Out[3]:
         residue_string  reported_measurement
0          MSLPYVICQQDR                -0.794
1  PFIARAFKLMLAWVLFCRAA                 0.171
2  GGTRDVFEFHNSDTPDAVYQ                -0.043
3   WPGFLSRWIRLRLDWSHEV                 -1.06
4           DYCRLMAWLSL                 0.315
5              FRSFLLPR                 0.644
6  SDLDVRAWQSLVSWIYRFPS                  0.18

Next up:
### Prompt Quick one: amyloid nucleation score of TWNNKFRPLVEHGYSAS ?
### Response -0.526

----------
Below, each of the substances is paired with its reported amyloid nucleation score value.
# procedure.text: amyloid nucleation score (Sup35N fusion, yeast selection) (log enrichment); library NNK2; higher = more nucleation; inactive = no reads after selection
Reply with just the number.

Examples with their reported amyloid nucleation score follow.
              substance  reported_measurement
0             NFVYMFVKL                  4.97
1  NWIPGVVEKRSRLSGFWSWL                 0.657
2             CVLYCVGFN                  6.48

### Prompt Quick one: amyloid nucleation score of SAWVTNIFDNKLCVAVTEFR ?
### Response 4.04

### Prompt Quick one: amyloid nucleation score of LGMCRGLRLIMMDWFGSDKM ?
### Response 2.35

### Prompt Quick one: amyloid nucleation score of VFMTSLY ?
### Response -1.06

### Prompt Quick one: amyloid nucleation score of VQGPHSFNGVGCRPFSNERR ?
### Response -0.202

### Prompt Quick one: amyloid nucleation score of IPGVLLTYVIISRAPGGIPD ?
### Response -0.545

----------
# procedure.text: amyloid nucleation score (Sup35N fusion, yeast selection) (log enrichment); library NNK2; higher = more nucleation; inactive = no reads after selection
Below, each of the substances is paired with its reported amyloid nucleation score value.
Reply with just the number.

Examples with their reported amyloid nucleation score follow.
              substance                  property  reported_measurement
0  VYKYNISFLEPKHESQAWNK  amyloid nucleation score                 0.042
1             RTYSMGGIR  amyloid nucleation score                -0.849
2   PLDPHCVFPIDNTSMMRVV  amyloid nucleation score                 0.295
3  FLKIYPIPNCYERCCVHLPP  amyloid nucleation score                  0.06
4        EMVQVVSAQGKTKL  amyloid nucleation score                  8.46

Next up:
### Prompt Quick one: amyloid nucleation score of WCSVLRDNKLSR ?
### Response -1.09

----------
# procedure.text: amyloid nucleation score (Sup35N fusion, yeast selection) (log enrichment); library NNK1; higher = more nucleation; inactive = no reads after selection
// bucketize amyloid nucleation score: 0: < -0.2; 1: ≥ -0.2 and < 0.4; 2: ≥ 0.4

Example cases with answers are listed next.
>>> print(df.to_string())
              substance  assigned_category
0  SFIPKVGCKKEPARRASGNV                  2
1  KNDVASLLLGSMLKANSTCC                  2
2  MISFCSSWKLEQYEWWRRNL                  2
3  KVEVWRVLGNSVQRRFSKDQ                  1

### Prompt Please indicate the class for NKNCLELCLTHGMLNQL based on its amyloid nucleation score.
### Response 1

### Prompt Please indicate the class for LAILMMCLLWTDLAKVLCPH based on its amyloid nucleation score.
### Response 1

### Prompt Please indicate the class for SFLRGMASWLTQMHGKGWGW based on its amyloid nucleation score.
### Response 1

### Prompt Please indicate the class for TVVTYVRNNFKEVHSCVEVS based on its amyloid nucleation score.
### Response 0

### Prompt Please indicate the class for CVVGLISGSPPIRSVFKCNR based on its amyloid nucleation score.
### Response 1

### Prompt Please indicate the class for VENTPSCSDISSDLMGREIH based on its amyloid nucleation score.
### Response 0

### Prompt Please indicate the class for YLFSFWFPRYRHVIFIGYTL based on its amyloid nucleation score.
### Response 2

### Prompt Please indicate the class for SKRLLQL based on its amyloid nucleation score.
### Response 0

### Prompt Please indicate the class for CDVAVVSFFGMADDPVYRVH based on its amyloid nucleation score.
### Response 2

### Prompt Please indicate the class for CQNFDDI based on its amyloid nucleation score.
### Response 1

### Prompt Please indicate the class for RIGLWCACMCRATTPVRGIE based on its amyloid nucleation score.
### Response 0

### Prompt Please indicate the class for LSYDEYPGMNASAAIQGLVV based on its amyloid nucleation score.
### Response 0

### Prompt Please indicate the class for SIRLYETHSLT based on its amyloid nucleation score.
### Response 2

### Prompt Please indicate the class for SSWQGLRNLHGSYEDQINVK based on its amyloid nucleation score.
### Response 2

### Prompt Please indicate the class for WNNVGNTCMEPRSSLGCTLR based on its amyloid nucleation score.
### Response 1

### Prompt Please indicate the class for SERVMEWGTLKLYDSVHCVL based on its amyloid nucleation score.
### Response 0

### Prompt Please indicate the class for CFNTRHRVQELRL based on its amyloid nucleation score.
### Response 0

Values were extracted from the supplement of paper PMC12042874.
